molecular target: human PPARα receptor (Homo sapiens, UniProt Q07869); assay: Cellular transactivation assay (GAL4-PPARα chimera, luciferase reporter); conditions: CHO cells stably expressing GAL4-PPARα chimera (human PPARα ligand binding domain) and luciferase reporter; 6 h stimulation
Sequence (Q07869 167-468): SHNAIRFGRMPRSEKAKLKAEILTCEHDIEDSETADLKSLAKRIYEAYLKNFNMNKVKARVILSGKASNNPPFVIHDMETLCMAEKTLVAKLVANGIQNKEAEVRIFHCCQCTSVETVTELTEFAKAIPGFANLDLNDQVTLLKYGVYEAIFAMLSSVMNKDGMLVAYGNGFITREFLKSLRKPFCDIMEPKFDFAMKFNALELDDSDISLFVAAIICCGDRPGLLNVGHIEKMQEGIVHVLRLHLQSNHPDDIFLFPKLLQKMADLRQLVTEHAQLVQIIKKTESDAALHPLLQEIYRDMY
Counter-ions that a name gives are not always drawn.
Reported pEC50 values for the following compounds.
# pEC50 is unitless: minus log10 of the molar concentration; print number only

Reference set (2 entries):
{"COMPOUND": "Cc1ccc(-c2cc(C(F)(F)F)c(C(=O)O)c(CC(C)C)n2)cc1F [Example 2, sodium salt]", "SYSTEM TESTED": "human PPARα receptor (Homo sapiens, UniProt Q07869)", "PROPERTY NAME": "pEC50", "READING": 7.96}
{"COMPOUND": "CCOc1cc(-c2ccc(Cl)cc2)nc(C(C)C)c1C(=O)O [Example 71, sodium salt]", "SYSTEM TESTED": "human PPARα receptor (Homo sapiens, UniProt Q07869)", "PROPERTY NAME": "pEC50", "READING": 7.07}

Could you now look at the following compound, please?
Please report the recorded pEC50 for CCc1nc(-c2ccc(Cl)cc2)cc(CC(C)C)c1C(=O)O [Example 51] . 7.62
